Cited source: PubChem BioAssay

Test: MM1S myeloma cell viability, profiling panel, resazurin fluorescence, basal, 24 h, PK04 Diversity Set (AID 1174);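 further: MM1S multiple myeloma cell line; test concentration not given here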
Conditions: higher = more signal, called active from +8 up or from −8 down
Recorded z-score split into classes lo (below -1), med (-1 to below -0.03), hi (-0.03 or more)

Some solved cases for reference:
compound: CN1C(=O)C2C=CC(C(O)c3ccccc3)N(Nc3ccccc3)C2C1=O (stereo not given)
label: lo
//
compound: CCOC(=O)C1=CCC(c2ccccc2)N(S(=O)(=O)CC[Si](C)(C)C)C1 (stereo not given)
label: hi
//
compound: CC(C)c1ccc(NN2C(C(O)c3cc(C(F)(F)F)cc(C(F)(F)F)c3)C=CC3C(=O)N(c4ccccc4)C(=O)C32)cc1 (stereo not given)
label: lo
//
compound: COCCOC(=O)N1C(=O)[C@@]2(c3cc(C#CCCO)ccc31)[C@H](c1ccc(OCCO)cc1)N1[C@H](c3ccccc3)[C@H](c3ccccc3)OC(=O)[C@H]1[C@@H]2C(=O)N1CCN(c2ncccn2)CC1
label: hi
//
compound: CCCCC=C[C@@H](NC(=O)Oc1cccc(C(F)(F)F)c1)c1ccccc1
label: lo

In the following, a different compound is considered.
Data request: Quick check: band for C=CCOC(=O)[C@@H]1[C@H]2C(=O)O[C@H](c3ccccc3)[C@H](c3ccccc3)N2[C@H](c2ccc(OCCOC(=O)[C@@H]3C[C@@H]4C(=O)N[C@@H](Cc5ccccc5)C(=O)N4[C@@H]3c3ccc(O)cc3)cc2)[C@@]12C(=O)Nc1ccc(I)cc12
Data returned: hi

* * *

Answer each item with its documented composite z-score.
System: Sonic hedgehog protein (Shh)
Test: small-molecule binders of Shh protein, primary screen, biochemical, small-molecule microarray, 635/667 nm fluorescence (AID 1151);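 further: Shh protein binding to compounds spotted on small-molecule microarray slides; score combines spot fluorescence intensity with signal-to-noise across triplicate slides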
Conditions: small-molecule microarray binding, 635 nm fluorescence; higher = more signal
One number for each entry.

Please review the entries below; each comes with its answer.
compound: C[N+](C)(C)CCCC[C@@H]1NC(=O)[C@@H]2C[C@H](C(=O)NCCCCCN)[C@H](c3cccc(OCCO)c3)N2C1=O
test system: Sonic hedgehog protein (Shh)
quantity kind: composite z-score
value: -0.125

compound: NC(=O)[C@@H]1[C@H]2C(=O)O[C@H](c3ccccc3)[C@H](c3ccccc3)N2[C@H](c2ccc(O)cc2)[C@@]12C(=O)Nc1ccc(C#CC3(O)CCCCCC3)cc12
test system: Sonic hedgehog protein (Shh)
quantity kind: composite z-score
value: -0.323

compound: O=C(c1ccccc1)N1Cc2ccccc2[C@@H]2OC(c3ccc(OCCCO)cc3)=N[C@]2(Cc2ccccc2)C1=O
test system: Sonic hedgehog protein (Shh)
quantity kind: composite z-score
value: 1.33

compound: CN1C(=O)C2C=CC(C(O)c3cccs3)N(Nc3ccccc3)C2C1=O (stereo unspecified)
test system: Sonic hedgehog protein (Shh)
quantity kind: composite z-score
value: 0.251

compound: COCCOC(=O)N1C(=O)[C@@]2(c3cc(C#CCCO)ccc31)[C@H](C(=O)N1CCN(c3ncccn3)CC1)[C@H]1C(=O)O[C@H](c3ccccc3)[C@H](c3ccccc3)N1[C@@H]2c1ccccc1OCCO
test system: Sonic hedgehog protein (Shh)
quantity kind: composite z-score
value: 0.842

Now turn to the next compound.
Data request: Look at this compound and give its reported composite z-score. CC1(C)[C@@H]2CC(C(O)C3C=CC4C(=O)N(c5ccccc5)C(=O)C4N3Nc3ccccc3)=C[C@H]1C2 (stereo partly specified)
Data returned: -0.385

* * *

Target: Calmodulin-1 (Homo sapiens)
Experiment: CALM1 binders on microarrays, EGTA buffer, profiling panel, biochemical, small-molecule microarray, Cy5-labelled CALM1 (AID 1111);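 further: labelled calmodulin applied in Tris saline Tween buffer holding calcium plus EGTA and DTT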
Settings: Cy5-CALM1 binding fluorescence, higher = more signal
quantity kind: composite z-score
One number for each entry.

compound: COCCCNC(=O)[C@@]1(Cc2ccccc2)N=C(c2ccc(OCCCO)cc2)O[C@H]1c1ccccc1
test system: Calmodulin-1 (Homo sapiens)
composite z-score: 2.34
--
compound: COCCOC(=O)N1C(=O)[C@@]2(c3cc(C#CCCO)ccc31)[C@H](C(=O)N1CCc3cc(OC)c(OC)cc3C1)[C@H]1C(=O)O[C@H](c3ccccc3)[C@H](c3ccccc3)N1[C@@H]2c1ccc(O)cc1
test system: Calmodulin-1 (Homo sapiens)
composite z-score: 0.527
--
compound: C[N+](C)(C)CCCC[C@@H]1NC(=O)[C@@H]2C[C@H](C(=O)NCCCCCN)[C@H](c3cccc(OCCO)c3)N2C1=O
test system: Calmodulin-1 (Homo sapiens)
composite z-score: 1.7
--
compound: CC(C)C[C@@H]1NC(=O)[C@H]2C[C@@H](C(=O)NCCCCCCN)[C@@H](c3ccc(O)cc3)N2C1=O
test system: Calmodulin-1 (Homo sapiens)
composite z-score: 0.143
--
compound: O=C1NC(=O)C2C1C=CC(C(O)Cc1ccccc1)N2Nc1ccc(Cl)cc1Cl (configuration not stated)
test system: Calmodulin-1 (Homo sapiens)
composite z-score: 1.73

Kindly give each listed record's composite z-score.
1. C=CC[C@]1(C(=O)N2CCCCC2)N=C(c2ccc(OCCCO)cc2)O[C@H]1c1ccccc1
2. COc1ccc(C(=O)Nc2ccc(CN3C(=O)[C@@]4(O[C@@H](CCO)[C@H]([Si](C)(C)c5ccc(OC)cc5)[C@H]4C)c4ccccc43)cc2)cc1

Data returned:
0.0382
0.0404

* * *

Biological target: Carbonic anhydrase 2 (Homo sapiens) (UniProt P00918)
Test: CAII small-molecule binders, profiling panel, biochemical, small-molecule microarray, Alexa647-labelled CAII (AID 1122)
Conditions: CAII-A647 binding fluorescence, higher = more signal
Answer each item with its documented composite z-score.

Please review the entries below; each comes with its answer.
compound: COCCn1c(C(=O)N2CCCC2)cc2c1C[C@H]1CN(C(=O)c3ccccc3)[C@@](Cc3ccc(F)cc3)(C(=O)OC)[C@@H]21
value: 0.827

compound: CC(C)C(=C=CC[C@@H](O)c1ccccc1OCCO)CCO
value: 0.374

compound: O=C1O[C@H](c2ccccc2)[C@H](c2ccccc2)N2[C@H]1[C@@H](C(=O)Nc1nc3ccccc3s1)[C@]1(C(=O)Nc3ccc(C#CCCO)cc31)[C@H]2c1ccc(OCCO)cc1
value: 0.419

Now turn to the next compound.
Data request: Look at this compound and give its reported composite z-score. O=C1NC(=O)C2C1C=CC(C(O)c1ccccc1)N2Nc1ccc(Cl)cc1Cl (centres undefined)
Data returned: 0.574

* * *

Biological target: Follistatin-related protein 3 (Homo sapiens)
Experiment: FSTL3 binders on small-molecule microarrays, primary screen, biochemical, small-molecule microarray, 635 nm fluorescence (AID 1105);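 further: score merges emission near 667 nm and signal to noise per printed spot across three slides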
Conditions: FSTL3 binding, higher = more signal
quantity kind: composite z-score
Numbers only.

Please review the entries below; each comes with its answer.
compound: CCOC(=O)C[C@H]1[C@H](OC(=O)c2cc3ccccc3oc2=O)[C@@H](NC(=O)C2CCCCC2)c2cc(OCCCO)ccc2N1C(=O)c1ccccc1
quantity kind: composite z-score
value: 0.708
--
compound: CCOC(=O)C1=CCC(c2ccccc2)N(S(=O)(=O)CC[Si](C)(C)C)C1 (stereo not given)
quantity kind: composite z-score
value: -0.736
--
compound: C=C(COC)/C(=C/C[C@@H](OC(C)=O)c1ccc(OCCO)cc1)c1cc(C(=O)OC)ccc1OC
quantity kind: composite z-score
value: 1.27
--
compound: COc1ccc(C(=O)Nc2ccc(CN3C(=O)[C@@]4(O[C@@H](CCn5cc([C@H](O)c6ccccc6)nn5)[C@H]([Si](C)(C)c5ccc(OC)cc5)[C@H]4C)c4ccccc43)cc2)cc1
quantity kind: composite z-score
value: 0.183
--
compound: O=C1[C@H]2C=C(Br)[C@H](C[C@@H]2c2ccccc2)[C@@]12CO2
quantity kind: composite z-score
value: 0.733

Kindly give each listed record's composite z-score.
1. COC(=O)c1c(CC[C@@H](CO)NC(=O)N[C@@H](C)Cn2cc(C3(O)CCCCC3)nn2)oc(C(C)=O)c1C(=O)OC
2. CC(C)(C)OC(=O)CC[C@@]1(C(N)=O)N=C(c2ccc(OCCCO)cc2)O[C@@H]1c1ccccc1
3. COc1ccc([Si](C)(C)[C@H]2[C@H](CCO)O[C@@]3(C(=O)N(C)c4c(Br)cc(C)cc43)[C@@H]2C)cc1
4. CN1C(=O)C2C=CC(C(O)c3ccc(-c4ccccc4)s3)N(N(c3ccccc3)c3ccccc3)C2C1=O (stereo not given)

Data returned:
1. 1.27
2. 0.0089
3. 0.4
4. 0.338

* * *

Biological target: Left-right determination factor 2 (Homo sapiens) (UniProt O00292)
Sequence (O00292 whole entry, looked up): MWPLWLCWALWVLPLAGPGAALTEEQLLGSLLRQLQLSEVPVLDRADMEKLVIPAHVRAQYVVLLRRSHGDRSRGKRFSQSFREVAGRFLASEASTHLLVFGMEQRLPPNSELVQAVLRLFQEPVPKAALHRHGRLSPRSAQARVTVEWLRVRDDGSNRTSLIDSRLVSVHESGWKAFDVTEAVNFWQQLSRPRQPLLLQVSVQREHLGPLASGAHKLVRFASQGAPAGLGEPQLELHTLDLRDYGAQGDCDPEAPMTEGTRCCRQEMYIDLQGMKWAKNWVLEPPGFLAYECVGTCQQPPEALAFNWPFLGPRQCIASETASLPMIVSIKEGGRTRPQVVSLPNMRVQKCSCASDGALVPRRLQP
Experiment: LEFTY2 binders on small-molecule microarrays, primary screen, biochemical, small-molecule microarray, 635 nm fluorescence scan (AID 1110)
Conditions: LEFTY2 binding, higher = more signal
Recorded composite z-score split into classes lower level: < -0.07; middle level: ≥ -0.07 and < 0.3; upper level: ≥ 0.3

compound: O=C1c2ccccc2[C@](Cc2ccccc2I)(C(=O)NC2CC2)[C@H](c2ccc(CO)cc2)N1C1CCCCC1
label: middle level

compound: C=C(C)C1C(=C)CN([C@H](CO)c2ccccc2)C1=O (stereo not given in full)
label: middle level

compound: C=C(CCCC)/C(=C/C[C@@H](OC(C)=O)c1ccccc1OCCO)c1cnc2ccccc2c1
label: middle level

compound: [N-]=[N+]=Nc1ccccc1C[C@]1(C(=O)NCC(O)CO)N=C(c2ccc(OCCCO)cc2)O[C@H]1c1ccccc1N=[N+]=[N-] (stereo not given in full)
label: lower level

compound: CCCN1C(=O)[C@]2(CCS(=O)(=O)c3ccccc3)N=C(c3ccc(OCCCO)cc3)O[C@@H]2c2ccccc21
label: middle level

compound: C=CCNC(=O)[C@H]1[C@@H]2C(=O)O[C@@H](c3ccccc3)[C@@H](c3ccccc3)N2[C@@H](c2ccc(O)cc2)[C@]12C(=O)N(C(=O)OCCOC)c1ccc(C#CCNC(N)=O)cc12
label: upper level

In the following, a different compound is considered.
Data request: Quick check: band for CCOC(=O)[C@H]1C/C=C/C[C@H](C(=O)OCC)C(=O)O[C@H]2[C@@H](OC)O[C@H](CO)[C@@H](OC(=O)Nc3ccc(C#N)cc3)[C@@H]2OC1=O
Data returned: middle level
